The origin of these recorded values is paper PMC8864165.

# SUBJECT_OF_TEST: T1, S. aureus GrpE (Staphylococcus aureus, UniProt P99086 1-208)
# T1 construct: source: E. coli (DE3) Rosetta pLysS, purified (IMAC, TEV cleavage, second IMAC)
# T1 sequence: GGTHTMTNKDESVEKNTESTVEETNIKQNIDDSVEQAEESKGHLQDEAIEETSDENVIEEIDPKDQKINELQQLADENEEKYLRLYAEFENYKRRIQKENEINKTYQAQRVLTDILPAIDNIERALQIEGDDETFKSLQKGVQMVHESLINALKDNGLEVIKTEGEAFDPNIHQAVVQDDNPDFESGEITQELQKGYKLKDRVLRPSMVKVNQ
# METHOD_SUMMARY: fluorescence polarisation; direct titration: protein serially diluted twofold in 23 steps, Cf-labeled peptide added (20 µL of 40 nmol/L to 20 µL); FP-buffer 20 mmol/L Tris-HCl, 150 mmol/L KCl, 5 mmol/L MgCl2, 1 mmol/L NaN3, 2 mmol/L DTT, pH 7.5; 2 h, 28°C, dark
# COND: both partners purified
Ends that are not written are not given here. Cf = 5(6)-carboxyfluorescein label
PARAMETER_MEASURED: Kd

Can you share its Kd? I mean this binder: Cf-RPDKPRPYLPRPRPPRPVR (also called 5(6)-carboxyfluorescein-labeled ARV-1502; source: synthetic peptide, in-house (Fmoc/tBu chemistry on Rink amide resin), RP-HPLC purified) [Cf-ARV-1502]
~138 µM
